Taken from BindingDB's records for doi:10.1021/cb800162x.

List of EC50 values.
biological target: Heat shock protein HSP 90-beta (Homo sapiens); assay: Cell Proliferation Assay; details: 37 °C
Sequence (P08238 whole entry): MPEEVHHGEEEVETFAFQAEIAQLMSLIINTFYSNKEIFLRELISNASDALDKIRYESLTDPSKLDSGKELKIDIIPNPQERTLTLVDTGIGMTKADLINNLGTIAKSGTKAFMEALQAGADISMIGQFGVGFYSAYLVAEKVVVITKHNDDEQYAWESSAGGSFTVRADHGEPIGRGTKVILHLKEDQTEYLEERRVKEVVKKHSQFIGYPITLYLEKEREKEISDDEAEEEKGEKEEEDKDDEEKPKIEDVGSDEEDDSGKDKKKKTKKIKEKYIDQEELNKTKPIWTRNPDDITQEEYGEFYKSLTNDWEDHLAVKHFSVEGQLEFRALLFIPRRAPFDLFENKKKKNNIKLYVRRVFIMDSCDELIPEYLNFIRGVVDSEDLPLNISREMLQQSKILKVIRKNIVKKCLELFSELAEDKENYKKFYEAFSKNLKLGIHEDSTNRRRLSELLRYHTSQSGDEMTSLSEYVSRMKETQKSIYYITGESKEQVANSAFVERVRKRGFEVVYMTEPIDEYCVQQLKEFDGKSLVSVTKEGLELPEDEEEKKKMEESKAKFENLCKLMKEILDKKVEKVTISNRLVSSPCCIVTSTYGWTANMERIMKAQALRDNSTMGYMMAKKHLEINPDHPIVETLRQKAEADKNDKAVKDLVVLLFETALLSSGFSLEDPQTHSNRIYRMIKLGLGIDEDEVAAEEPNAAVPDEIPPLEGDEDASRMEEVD
endpointName: EC50 (nM)

# structureNotation, endpointName, measuredValue
records = [
    ("Cn1nc(-c2ccccc2)nc2c(=O)n(C)c(=O)nc1-2", "EC50", 690),
    ("CCn1nc(-c2ccccc2)nc2c(=O)n(C)c(=O)nc1-2", "EC50", 1720),
    ("CCn1nc(Cc2ccccc2)nc2c(=O)n(C)c(=O)nc1-2", "EC50", 4270),
    ("CCn1nc(-c2cccs2)nc2c(=O)n(C)c(=O)nc1-2", "EC50", 1210),
    ("Cc1nc2c(=O)n(C)c(=O)nc-2n(C)n1", "EC50", 946),
    ("CCCc1nc2c(=O)n(C)c(=O)nc-2n(C)n1", "EC50", 917),
]

----------
biological target: UniProtKB P08238
pKd: −log10 of the molar value.

# structureNotation, pKd
measured = [
    ("Cn1nc(-c2ccccc2)nc2c(=O)n(C)c(=O)nc1-2", 6.23),
    ("CCn1nc(-c2cccs2)nc2c(=O)n(C)c(=O)nc1-2", 6.44),
    ("CCCc1nc2c(=O)n(C)c(=O)nc-2n(C)n1", 6.38),
    ("CCn1nc(-c2ccccc2)nc2c(=O)n(C)c(=O)nc1-2", 6.44),
    ("Cc1nc2c(=O)n(C)c(=O)nc-2n(C)n1", 6.31),
]
